These entries and their values trace back to patent US20110059095A1.

Biological target: T1, Peptide B (human PAR-2), N-terminal biotinylated (Human)
T1 construct: also called Peptide B N-Term
T1 peptide: Biotin-GGGGSSLIGKVDGTSHVTG
Assay: peptide ELISA
Where no end group is shown, it is not given here. The star is where a group is joined. Biotin = O=C1N[C@H]2[C@H](CS[C@H]2CCCCC(=O)*)N1
RECORDED METRIC: OD450

Guide cases for OD450, answers given:
H2M589N (antibody, V domains shown, chimeric: human variable, mouse constant domains) VH: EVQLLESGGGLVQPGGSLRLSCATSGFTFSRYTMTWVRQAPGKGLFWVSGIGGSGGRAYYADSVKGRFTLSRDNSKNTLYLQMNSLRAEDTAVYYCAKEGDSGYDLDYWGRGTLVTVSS VL: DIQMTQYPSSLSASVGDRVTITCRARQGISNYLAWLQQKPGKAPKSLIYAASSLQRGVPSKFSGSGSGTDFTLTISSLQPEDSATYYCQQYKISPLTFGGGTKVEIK :: 1 to 4 od
H3M620N (antibody, V domains shown, chimeric: human variable, mouse constant domains) VH: EVQLVESGGNVVRPGGSLRLSCAASGFTFDDYGMTWVRQVPGKGLEWVSGINWNGGSTDYADSVKGRFTISRDNAKNSLYLQMNSLRAEDTALYYCARDKGFYGMDVWGQGTTVTVSS VL: DIVMTQSPDSLAVSLGERATINCKSSQNPLYNSNKKKYLAWYQQKPGQPPKLVIYWASTRESGVPDRFSGSGSGTDFTLTITSLQAEDVAVYYCQQYYSTPYTFGQGTKLEIK :: 0 to 0.09 od
H2M609N (antibody, V domains shown, chimeric: human variable, mouse constant domains) VH: EVQLVESGGGLVQPGRSLRLSCAASGFTFDDYAMHWVRQAPGKGLEWVSGISWNSGSKGFADSVKGRFTISRDNAKNSLYLQMNSLRVEDTALYYCAKENWSFDYWGQGTLVTVSS VL: DIVMTQTPLSSPVTLGQPASISCRSSQSLVHSDGNIYLSWLQQRPGQPPRLLIYKISNRFSGVPDRFSGSGAGTDFTLKISRVEAEDVGIYYCMQASHFPYTFGQGTKLEIK :: 0 to 0.09 od

Please examine the following record next.
Item under review: H2M611N (antibody, V domains shown, chimeric: human variable, mouse constant domains) VH: EVQLLESGGGLVQPGGSLRLSCAASGFTFSSYAMTWVRQAPGKGLYWVSAISGSGGSAYYADSVKGRFTISRDNSKNTLYLQMNSLRAEDTAVYYCAKEGDSGYDLDYWGRGTLVTVSS VL: DIQMTQSPSSLSASVGDRVTITCRARQGISNYLAWLQQKPGKAPKSLIYAASSLQSGVPSKFSGSGSGTDFTLTISSLQPEDFATYYCQQYKSSPLTFGGGTKVEIK . Reported OD450?
1 to 4 od
